EXPERIMENT_DESCRIPTION: gradient 5% acetonitrile 3 min, to 50% in 2 min, to 85% in 15 min, held 3 min, 100 µL/min
CONDITION_LABEL: column: Zorbax Extend-C18 2.1 x 50 mm; eluents: water / acetonitrile, 0.1% formic acid
Attribute: RP-LC retention time

- MOLECULE: "O=C1CCCC(=O)N1CCS(=O)(=O)NCC1(c2ccccc2)CCOCC1"
  UNIT_LABEL: "s"
  RP-LC retention time: 678
- MOLECULE: "Cc1nc(-c2csc(S(=O)(=O)N3CCCC(C(=O)Nc4ccc(C(C)C)cc4)C3)c2)no1 (stereo not given)"
  UNIT_LABEL: "s"
  RP-LC retention time: 1090
- MOLECULE: "O=C(C1CCN(S(=O)(=O)c2cc(-c3noc(C4CC4)n3)cs2)CC1)N1CCc2ccccc2C1"
  UNIT_LABEL: "s"
  RP-LC retention time: 1020
- MOLECULE: "COc1ccc(OC)c(CNC(=O)c2ccc3[nH]c4c(c3c2)CN(C(C)=O)CC4)c1"
  UNIT_LABEL: "s"
  RP-LC retention time: 680
- MOLECULE: "Cc1ccc(N2CN(Cc3ccccc3)S(=O)(=O)c3cccnc32)cc1"
  UNIT_LABEL: "s"
  RP-LC retention time: 1130

###

EXPERIMENT_DESCRIPTION: gradient 5% acetonitrile 3 min, to 50% in 2 min, to 85% in 15 min, held 3 min, 100 µL/min
CONDITION_LABEL: column: Zorbax Extend-C18 2.1 x 50 mm; eluents: water / acetonitrile, 0.1% formic acid
// returns not met unless RP-LC retention time is strictly below 700 s, in which case met

- MOLECULE: "CCOc1ccc(NC(=O)Cn2c(N3CCOCC3)nc(COC)cc2=O)cc1"
  CAT: "not met"
- MOLECULE: "COc1ccc(C2(CNC(=O)CCc3c(C)noc3C)CCOCC2)cc1"
  CAT: "met"
- MOLECULE: "CCCn1cc(C(=O)Nc2ccc(F)cc2)c(S(=O)(=O)N2CCSCC2)n1"
  CAT: "not met"
- MOLECULE: "O=S(=O)(c1ccc2c(c1)-c1oncc1CO2)N1CCN(C(c2ccccc2)c2ccccc2)CC1"
  CAT: "not met"
- MOLECULE: "CCCCN(C)c1nc(-c2ccc(C)cc2)nc2ccccc12"
  CAT: "not met"
- MOLECULE: "COc1ccc(CNC(=O)N2CC=C(c3cn(C)c4ncccc34)CC2)cc1"
  CAT: "not met"
- MOLECULE: "CC1CCN(S(=O)(=O)c2ccc3c(c2)CCCC(=O)N3CC(=O)Nc2ccc(F)cc2)CC1"
  CAT: "not met"
- MOLECULE: "Cc1nnc2ccc(-c3cccc(NC(=O)C4CCN(S(C)(=O)=O)CC4)c3)nn12"
  CAT: "met"
- MOLECULE: "O=C(Cn1cnc2nc(N3CCC(C(=O)NC4CC4)CC3)sc2c1=O)NCC1CCCO1 (centres undefined)"
  CAT: "met"
- MOLECULE: "COc1ccc(-c2ccnn2-c2ccc(SCc3ccccc3C)nn2)cc1"
  CAT: "not met"
- MOLECULE: "Cc1noc(-c2nn(C)c3c2CN(C(=O)Nc2ccc(F)cc2)CC3)n1"
  CAT: "not met"
- MOLECULE: "CCCN(C(=O)c1ccccc1)c1nc(-c2ccccc2)cs1"
  CAT: "not met"
- MOLECULE: "Cc1cc2c(c(=O)n(-c3ccccc3)c(=O)n2CC(=O)Nc2ccc(C(F)(F)F)cc2)n1C"
  CAT: "not met"
- MOLECULE: "COc1ccc(Cl)cc1C(=O)N1CCN(C2=NC=CN3CC(C)N=C23)CC1 (centres undefined)"
  CAT: "met"
- MOLECULE: "Cc1ccn2c(=O)c(NC(=O)c3ccco3)c(C)nc2c1"
  CAT: "met"
- MOLECULE: "O=C(N[C@H]1C[C@@H]2C[C@H]1CN2C(=O)Cc1ccc(OC(F)(F)F)cc1)c1ccccc1"
  CAT: "not met"
- MOLECULE: "Cc1nnc(N2CCC(C(=O)N3CCCC3)CC2)c2nn(-c3ccccc3)c(C)c12"
  CAT: "met"
- MOLECULE: "Cc1cccc(NC(=O)C2CC(=O)N(c3ccc4c(c3)CCN4C(=O)C3CC3)C2)c1 (centres undefined)"
  CAT: "not met"
- MOLECULE: "CCOc1ccc(NC(=O)CSc2nc(N3CCCCC3)nc3ccccc23)cc1"
  CAT: "not met"
- MOLECULE: "COc1ccc(C(=O)N2CCC(n3c(-c4ccco4)nc4cccnc43)C2)cn1 (centres undefined)"
  CAT: "met"
- MOLECULE: "COc1ccc(CN(C)Cc2cc(=O)n3ccc(C)cc3n2)cc1OC"
  CAT: "met"
- MOLECULE: "CCSc1nc(NCC(C)C)c2cnn(CCNC(=O)c3cn(C)nc3OC)c2n1"
  CAT: "not met"
- MOLECULE: "CC(C)NC(=O)N1CC(Oc2cccc(-c3nc(-c4ccccc4)no3)c2)C1"
  CAT: "not met"
- MOLECULE: "O=C(NC(c1ccccc1)c1nnc(-c2ccccc2Cl)o1)c1ccco1 (centres undefined)"
  CAT: "not met"
- MOLECULE: "O=C(Cc1ccsc1)N1CCC(c2noc(C3CC3)n2)C1 (centres undefined)"
  CAT: "not met"
- MOLECULE: "Cc1noc(C)c1CNC(=O)c1ccc2nc[nH]c2c1"
  CAT: "met"
- MOLECULE: "COc1ccc(C(=O)NC2CCN(c3cc(-c4ccc(Cl)cc4)[nH]n3)C2)cc1 (centres undefined)"
  CAT: "not met"
- MOLECULE: "COc1ccc(N2C(=O)C3N=NN(Cc4nc(-c5ccc(Cl)cc5)no4)C3C2=O)cc1 (centres undefined)"
  CAT: "not met"
- MOLECULE: "Cc1ccc(C)c(CNC(=O)c2ccc(-c3cccnc3)nc2)c1"
  CAT: "not met"
- MOLECULE: "Cc1cnn(Cc2nc(-c3ccc(NC(=O)c4sccc4C)cc3)oc2C)c1"
  CAT: "not met"
- MOLECULE: "Cc1c(Cl)cccc1NC(=O)C(=O)NC1CCCC1"
  CAT: "not met"
- MOLECULE: "O=C(Nc1cccc(Cl)c1)C1CCCN1S(=O)(=O)c1cccc2nsnc12 (centres undefined)"
  CAT: "not met"
- MOLECULE: "Cn1c(=O)c2c(nc(/C=C/c3cccc(Cl)c3)n2C)n(C)c1=O"
  CAT: "not met"
- MOLECULE: "Clc1ccccc1CSc1nnc(-c2ccc(Br)cc2)o1"
  CAT: "not met"
- MOLECULE: "COc1cccc(CN2CCC([C@H]3[C@@H](OC)C(=O)N3C(C)C)CC2)n1"
  CAT: "met"
- MOLECULE: "COc1ccc(OC)c(CNC(=O)CN2CCN(Cc3ccc(F)cc3)C2=O)c1"
  CAT: "not met"

###

EXPERIMENT_DESCRIPTION: gradient 5% acetonitrile 3 min, to 50% in 2 min, to 85% in 15 min, held 3 min, 100 µL/min
CONDITION_LABEL: column: Zorbax Extend-C18 2.1 x 50 mm; eluents: water / acetonitrile, 0.1% formic acid
// returns -1 unless RP-LC retention time is strictly below 800 s, in which case 1

- COMPOUND: "Cc1noc(C)c1CN1CCC(NC(=O)c2ccc3c(c2)OCO3)CC1"
  CAT: 1
- COMPOUND: "COC(=O)c1cn(CC(=O)N2CCc3ccccc32)c2ccccc12"
  CAT: -1
- COMPOUND: "CCCCn1nnc(NCc2ccc(-c3ccc(Cl)cc3Cl)o2)n1"
  CAT: -1
- COMPOUND: "CC(C)CCNC(=O)C1CCCN(c2ccc(=O)n(-c3cccc(F)c3)n2)C1 (stereo not given)"
  CAT: -1
- COMPOUND: "COCCc1noc(COC2CCCN(C(=O)c3ccoc3)C2)n1 (stereo not given)"
  CAT: 1
- COMPOUND: "CCN(C(=O)C1CCCN(S(=O)(=O)c2cc(-c3noc(C)n3)cs2)C1)c1ccccc1 (stereo not given)"
  CAT: -1
- COMPOUND: "CCN1CCN(C(=O)CC2COc3ccc(Cl)cc3N2Cc2ccccc2)CC1 (stereo not given)"
  CAT: 1
- COMPOUND: "COc1ccc2c(c1)-c1nc(NC(=O)c3ccccc3Br)sc1CC2"
  CAT: -1

###

EXPERIMENT_DESCRIPTION: gradient 5% acetonitrile 3 min, to 50% in 2 min, to 85% in 15 min, held 3 min, 100 µL/min
CONDITION_LABEL: column: Zorbax Extend-C18 2.1 x 50 mm; eluents: water / acetonitrile, 0.1% formic acid

- COMPOUND: "Cc1nc(-c2ccc3c(c2)CCN3C(=O)Cc2ccc(F)cc2)cs1"
  RP-LC retention time: "990 s"
- COMPOUND: "CC1=NS(=O)(=O)N(C)C=C1C(=O)OCc1nc(Cc2ccccc2C)no1"
  RP-LC retention time: "987 s"
- COMPOUND: "O=C(CCCN1CCN(Cc2ccc(F)cc2)C(=O)C1=O)NCCc1ccc(Cl)cc1"
  RP-LC retention time: "733 s"
- COMPOUND: "Cc1ccc2oc(-c3noc(C(=O)NCCN(C)C)n3)c(C)c2c1"
  RP-LC retention time: "682 s"
- COMPOUND: "Cc1[nH]c(C(=O)NC2CCCCC2)c(C)c1S(=O)(=O)N1CCCC1"
  RP-LC retention time: "843 s"
- COMPOUND: "O=C(Nc1ccc(-c2cn3cccnc3n2)cc1)c1cccc(Br)c1"
  RP-LC retention time: "702 s"
- COMPOUND: "O=S(=O)(NC1CCCCCC1)c1ccc(-c2nnc(C3CCC3)o2)o1"
  RP-LC retention time: "996 s"
- COMPOUND: "Cc1[nH]nc(-c2ccc(S(=O)(=O)N3CCN(c4ccccn4)CC3)s2)c1C"
  RP-LC retention time: "662 s"
- COMPOUND: "CCc1cc(-c2csc(S(=O)(=O)NCCCN3CCC(C)CC3)c2)on1"
  RP-LC retention time: "677 s"
- COMPOUND: "Cc1cc(N2CCOCC2)nc(N2CCN(C(=O)c3ccc(C)c(C)c3)CC2)n1"
  RP-LC retention time: "646 s"
- COMPOUND: "COc1ccc(C(=O)N2CCC3(CC2)NC(=O)c2ccc(F)cc2N3C)cc1"
  RP-LC retention time: "740 s"
- COMPOUND: "CC(C)C(=O)NCc1cnn(-c2ccc(C(=O)Nc3ccc4c(c3)OCCO4)cc2)c1"
  RP-LC retention time: "733 s"
- COMPOUND: "CCN(CC)c1ccc(-c2nc3ncccn3c2NCc2ccccc2)cc1"
  RP-LC retention time: "712 s"
- COMPOUND: "COc1ccc(Cl)cc1NC(=O)Cn1c(=O)n(-c2ccc(C)cc2)c(=O)c2c1cc(C)n2C"
  RP-LC retention time: "984 s"
- COMPOUND: "CC(C)CC(=O)NCCn1c(=O)n(Cc2ccc(F)cc2)c2cccnc21"
  RP-LC retention time: "750 s"
- COMPOUND: "Cc1ccc(CN2CC(c3ncc(C)n3Cc3ccccc3)C2)s1"
  RP-LC retention time: "587 s"
- COMPOUND: "COc1ccc(NC(=O)Cc2c(C)nn(-c3nc(-c4ccccc4)cs3)c2C)cc1"
  RP-LC retention time: "1110 s"
- COMPOUND: "COc1cccc2c(=O)c(NC(=O)N3CCCC(C(N)=O)C3)c[nH]c12 (stereo not given)"
  RP-LC retention time: "580 s"
- COMPOUND: "Cn1nc(-c2nnc(-c3ccc(F)cc3)o2)c2c1CCN(S(=O)(=O)c1cc(F)cc(F)c1)C2"
  RP-LC retention time: "922 s"
- COMPOUND: "O=C(NCCc1ccsc1)C(=O)NCC(F)(F)F"
  RP-LC retention time: "756 s"
